- system tested: T1, human TNFR2 on cells (human, UniProt P20333 23-461)
- T1 construct: whole, on cells; also called TNFR2 on Jurkat clone H6; human TNFR2 on CD4+ and CD8+ T cells
- T1 sequence (looked up): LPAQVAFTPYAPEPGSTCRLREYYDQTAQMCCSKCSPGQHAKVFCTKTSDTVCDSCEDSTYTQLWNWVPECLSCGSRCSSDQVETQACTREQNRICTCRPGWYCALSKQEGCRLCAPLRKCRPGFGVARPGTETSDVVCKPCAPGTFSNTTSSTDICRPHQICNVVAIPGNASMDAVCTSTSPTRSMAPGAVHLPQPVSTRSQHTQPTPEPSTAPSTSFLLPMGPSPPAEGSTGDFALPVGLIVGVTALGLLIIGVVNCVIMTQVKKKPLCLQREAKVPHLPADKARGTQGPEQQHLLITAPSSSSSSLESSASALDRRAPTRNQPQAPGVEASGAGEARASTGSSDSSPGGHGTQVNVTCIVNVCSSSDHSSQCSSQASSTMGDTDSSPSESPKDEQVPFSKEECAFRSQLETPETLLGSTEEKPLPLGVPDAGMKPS
- experiment description: flow cytometry on human PBMC, antibody at 10 ug/mL, anti-human Fc-PE secondary
measured endpoint: % CD4^+ ab^+ Donor 2 (%)
Numeric only. Scale: %

These solved cases illustrate the format of a correct answer.
# binder, measured result
records = [
    ("chimeric SBT-004 (antibody, V domains shown, VH fused to a human IgG1 Fc domain; also called chSBT-004) VH: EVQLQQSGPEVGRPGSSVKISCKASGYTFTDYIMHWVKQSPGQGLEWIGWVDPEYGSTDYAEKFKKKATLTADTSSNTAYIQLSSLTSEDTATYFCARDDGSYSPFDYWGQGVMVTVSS VL: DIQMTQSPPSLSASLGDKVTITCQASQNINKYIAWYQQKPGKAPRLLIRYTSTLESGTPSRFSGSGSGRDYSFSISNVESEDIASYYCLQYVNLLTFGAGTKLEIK", 26.4),
    ("chimeric SBT-003 (antibody, V domains shown, also called chSBT-003) VH: QIQLVQSGPELKKPGETVKISCKASGYTFTDYSMHWVKQAPGKGLKWMGWINTETGEPTYADDFKGRFAFSSETSTSTAYLQINNLKNDDTTTYFCATYYGSSYVPDYWGQGTSLTVSS VL: DIVMTQSHKFMSTSVGDRVSITCKASQNVGTAVAWYQHKPGQSPKLLIYWTSSRHTGVPDRFTGSGSGTEFTLTISNVQSEDLADYFCHQYSDYPYTFGGGTKLEIK", 35),
]

Task item: Note % CD4^+ ab^+ Donor 2 for the binder shown: chimeric SBT-002 (antibody, V domains shown, also called chSBT-002) VH: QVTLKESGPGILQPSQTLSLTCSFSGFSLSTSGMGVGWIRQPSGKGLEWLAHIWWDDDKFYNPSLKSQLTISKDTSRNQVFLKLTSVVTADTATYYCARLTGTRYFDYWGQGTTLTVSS VL: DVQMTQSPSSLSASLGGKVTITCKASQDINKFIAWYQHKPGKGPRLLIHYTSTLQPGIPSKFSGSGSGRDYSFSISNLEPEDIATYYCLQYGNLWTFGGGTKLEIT
Reply: 38.3

Task item: Note % CD4^+ ab^+ Donor 2 for the binder shown: chimeric SBT-004b (antibody, human IgG1, V domains shown, Same heavy chain as chSBT-004 (human IgG1 Fc domain); also called chSBT-004b) VH: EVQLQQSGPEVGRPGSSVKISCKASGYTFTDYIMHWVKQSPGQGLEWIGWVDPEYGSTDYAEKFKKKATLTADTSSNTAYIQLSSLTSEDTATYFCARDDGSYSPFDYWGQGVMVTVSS VL: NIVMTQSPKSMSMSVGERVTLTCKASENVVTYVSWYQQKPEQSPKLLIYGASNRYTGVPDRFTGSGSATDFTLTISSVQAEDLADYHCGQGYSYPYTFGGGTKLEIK
Reply: 18.4
